FYI, the data here is from patent US20070105158A1.

# study-target: rho-tag(39)-OR1A1 (Homo sapiens, UniProt Q9P1Q5)
# Sequence (Q9P1Q5 whole entry): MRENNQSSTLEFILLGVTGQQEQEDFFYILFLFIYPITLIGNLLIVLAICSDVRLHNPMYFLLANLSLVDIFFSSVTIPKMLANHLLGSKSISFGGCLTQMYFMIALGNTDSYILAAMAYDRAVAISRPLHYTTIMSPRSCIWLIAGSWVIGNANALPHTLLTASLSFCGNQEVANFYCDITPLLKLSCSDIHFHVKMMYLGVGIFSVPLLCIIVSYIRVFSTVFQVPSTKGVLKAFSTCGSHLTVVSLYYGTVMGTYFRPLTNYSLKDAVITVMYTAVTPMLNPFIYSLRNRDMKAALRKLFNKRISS
measured-endpoint: EC50
Write the quantity with the unit trailing the number.

EC50 value, target or system rho-tag(39)-OR1A1 (Homo sapiens, UniProt Q9P1Q5), for CC(C)=CCCC(C)CC=O (single isomer, unassigned; (-)) [(−)citronellal] : 2200 nM

* * *

# study-target: rho-tag(39)-Olfr49 (Mus musculus)
# Construct: PCR-amplified the full-length coding regions of mouse Olfr49 (1-C6, NM010991); rho-tag(39): first 39 amino acids of bovine rhodopsin (N); expressed in transfected cells
# test-summary: Odorant-induced Ca2+ influx (FLIPR) in forskolin-pre-treated HeLa-Cx43/CNGA2 cells expressing rho-tag(39)-Olfr49
# Assay type: cell-based
# condition-context: EC50 for odorant-induced Ca2+ influx, stably expressed rho-tag(39)-Olfr49, forskolin-pre-treated
measured-endpoint: pEC50
A value of pEC50 is the negative decimal logarithm of a concentration given in moles per litre.

Use the examples below as a reference point.
compound: CC(C)=CCCC(C)CCO (stereo not shown)
pEC50: 4.48

compound: CC(C)=CCCC(C)CC=O (single isomer, unassigned; (+)) [(+)citronellal]
pEC50: 5.59

compound: CC(C)=CCCC(C)CC=O (single isomer, unassigned; (-)) [(−)citronellal]
pEC50: 5.68

Proceed to the following item.
// field: pEC50; key: `CCCCCCCC=O` ; value = 5.43

* * *

# study-target: rho-tag(39)-Olfr43 (Mus musculus, UniProt Q7TRX1)
# Sequence (Q7TRX1 1-313): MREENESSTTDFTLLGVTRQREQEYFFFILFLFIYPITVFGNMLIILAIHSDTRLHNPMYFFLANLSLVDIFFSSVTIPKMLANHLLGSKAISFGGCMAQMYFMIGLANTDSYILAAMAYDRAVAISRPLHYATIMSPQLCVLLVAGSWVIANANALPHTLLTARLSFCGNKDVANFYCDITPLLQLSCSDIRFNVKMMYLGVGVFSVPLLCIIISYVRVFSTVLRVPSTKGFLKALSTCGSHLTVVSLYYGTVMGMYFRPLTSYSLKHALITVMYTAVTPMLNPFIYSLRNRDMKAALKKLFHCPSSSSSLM
measured-endpoint: pEC50
A value of pEC50 is the negative decimal logarithm of a concentration given in moles per litre.

pEC50 value, target or system rho-tag(39)-Olfr43 (Mus musculus, UniProt Q7TRX1), for CC(C)=CCCC(C)CC=O (single isomer, unassigned; (-)) [(−)citronellal] : 5.68

* * *

# study-target: rho-tag(39)-Olfr49 (Mus musculus)
# Construct: PCR-amplified the full-length coding regions of mouse Olfr49 (1-C6, NM010991); rho-tag(39): first 39 amino acids of bovine rhodopsin (N); expressed in transfected cells
# Sequence (Q9Z1V0 1-313): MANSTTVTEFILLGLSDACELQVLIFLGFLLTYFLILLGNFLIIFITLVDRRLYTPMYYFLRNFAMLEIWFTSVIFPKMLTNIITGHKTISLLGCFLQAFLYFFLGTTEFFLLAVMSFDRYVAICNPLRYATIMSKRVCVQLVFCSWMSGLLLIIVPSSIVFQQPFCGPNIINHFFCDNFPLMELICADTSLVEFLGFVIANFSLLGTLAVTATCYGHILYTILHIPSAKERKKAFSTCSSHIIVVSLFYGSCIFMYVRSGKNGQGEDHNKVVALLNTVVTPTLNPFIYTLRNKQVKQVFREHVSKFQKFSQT
# test-summary: Odorant-induced Ca2+ influx (FLIPR) in forskolin-pre-treated HeLa-Cx43/CNGA2 cells expressing rho-tag(39)-Olfr49
# Format: cell-based
# condition-context: stably expressed rho-tag(39)-Olfr49, forskolin-pre-treated, read-out: EC50 for odorant-induced Ca2+ influx
measured-endpoint: EC50 (µM)
Use µM as the unit, but write only the number.

// field: EC50; key: `CCCCCCC=O` ; value = 6
